System: OVCAR-3 ovarian
assayComment: NCI tumour cell line growth inhibition, 48 h; in the data active means GI50 below about 0.43 µM; inactive means the rest
Outcome codes: active, inactive

* CN(C)c1cc2c(Nc3ccc4nc(Cc5ccccc5)[nH]c4c3)ncnc2cn1 | inactive
* COC(=O)c1c2c(c[n+]([O-])c1C)C(=O)C(NCc1ccccc1)=CC2=O | active
* C[CH2][Sn]1([CH2]C)[O]C2C(O)OC(CO)C(O)C2[O]1 (stereo unspecified) | inactive
* O=C(Nc1cccnc1)c1cccs1 | inactive
* NC(=O)c1cccc(N)c1 | inactive
* O=Cc1ncc(-c2ccc(C(F)(F)F)cc2)c(NC2CCCCCC2)n1 | inactive

###

System: NCI-H23 lung
assayComment: NCI tumour cell line growth inhibition, 48 h
measure: GI50

* COC(=O)c1c2c(c[n+]([O-])c1C)C(=O)C(NCc1ccccc1)=CC2=O | 0.485 µM
* Clc1ccc(-c2nc(-c3c[nH]c4ncccc34)cs2)cc1 | 97.7 µM
* O=C(/C=C\c1cccc([N+](=O)[O-])c1)c1ccccc1 | 6.16 µM
* CN(C)c1cc2c(Nc3ccc4nc(Cc5ccccc5)[nH]c4c3)ncnc2cn1 | > 23.9 µM
* S=C(Nc1ccc(-c2nc3ccccc3s2)cc1)Nc1ccccn1 | 25.7 µM
* CCc1ccc(/C(C#N)=C/C=C/c2ccccc2)cc1 | 6.24 µM
* O=C(Nc1cccnc1)c1cccs1 | 4.84 µM
* C=C1CCCC(C)(C)[C@@H]1CC/C(C)=C/Cn1c2cccc(=O)c-2nc2ccccc21 | 5.39 µM
* Nc1ccccc1C#Cc1ccccc1C#Cc1ccccc1N | 19.3 µM
* NC(=O)c1cccc(N)c1 | > 100 µM
* NC(=O)Cc1ccccc1Oc1nccc(-c2c(-c3ccc(F)cc3)ncn2C2CCNCC2)n1 | > 25 µM

###

# TGI annotations
Tested on: A549 NSCLC
assayComment: NCI tumour cell line growth inhibition, 48 h
measure: TGI

• COc1ccc(-c2cn3c(nc4ccccc43)c(C)n2)cc1 = > 100 µM
• CCC[CH2][Sn]([CH2]CCC)([O]C(=O)c1cc(OC)c(OC)c(OC)c1)[O]C(=O)c1cc(OC)c(OC)c(OC)c1 = 13.8 µM
• C/C(Sc1ccccc1)=C1/CCCN(Cc2ccccc2)C1 = > 100 µM
• O=C(COC(c1ccc(F)cc1)c1ccc(F)cc1)N1CCN(CCCc2ccccc2)CC1 = 15.2 µM
• N#Cc1ccc(Nc2cnc3cc(N)ccc3n2)cc1 = > 100 µM
• CSc1nc2nc(C)c(C)nc2c(=O)[nH]1 = > 100 µM
• O=c1oc2c(Br)c(O)c(Br)cc2c2ccccc12 = 87.1 µM
• CSc1sc(C)cc1-c1nsc(=O)o1 = > 100 µM
• O=C(c1ccc(F)c(F)c1Nc1ccc(I)cc1F)N1CC(O)([C@H]2CCCCN2)C1 = 18 µM
• Cc1cc2c(cc1C)C(=O)c1ncccc1C2=O = > 100 µM
• CC(C)CC(=O)N1CCN(C(=O)CC(C)C)c2ccccc21 = > 100 µM

###

Tested on: SF-268 CNS
assayComment: NCI tumour cell line growth inhibition, 48 h; in the data active = GI50 below about 0.43 µM; inactive = the rest
Outcomes: y = active, n = inactive

* COc1cc2c3c(n(CCCN=[N+]=[N-])c(=O)c2cc1OC)-c1ccc(N)cc1C3=O | y
* C[CH2][Sn]1([CH2]C)[O]C2C(O)OC(CO)C(O)C2[O]1 (centres undefined) | n
* N#Cc1cc(-c2ccccc2)[nH]c1-c1nccc2ccccc12 | n
* [Ce+3].[Cl-].[O-]/N=C(\c1ccccc1)c1ccccn1.[O-]/N=C(\c1ccccc1)c1ccccn1.[O-]/N=C(\c1ccccc1)c1ccccn1 | n
* COc1cc(C2=Nc3c/c(=C\c4c(O)[nH]c5ccc(Cl)cc45)ccc3=N2)cc(OC)c1OC | n
* CCC[CH2][Sn]([CH2]CCC)([O]C(=O)c1cc(OC)c(OC)c(OC)c1)[O]C(=O)c1cc(OC)c(OC)c(OC)c1 | n
* COc1ccc(C2=C(Br)C(=O)OC2)cc1Cl | n
* O=[N+]([O-])c1ccc(Oc2cccnc2)c([N+](=O)[O-])c1 | n
* COc1cc(-c2nn(C)nc2-c2cc3ccccc3s2)cc(OC)c1OC | n
